Entry source: patent US20200369728A1

Assay: Circular dichroism (CD) analysis of alpha-helicity
Type: physicochemical
Conditions: 222 nm
Bridge positions count the residues as written; N and C are the ends. Square brackets hold non-standard residues; d marks the D form. Peptide text beside a SMILES is read from it. R8 = C=CCCCCCC[C@@](C)(N)C(=O)O; S5 = C=CCCC[C@](C)(N)C(=O)O
Observed property: Molar Ellipticity TFE − Molar Ellipticity Benign (deg cm^2 dmol^−1)
The figure you give is taken to be in deg cm^2 dmol^−1; do not add the unit.

- CC(=O)N[C@@H](CC(C)C)C(=O)N[C@H](C(=O)N[C@@H](Cc1ccccc1)C(=O)N[C@]1(C)CCCCCCC=CCCC[C@@](C)(C(=O)N[C@@H](Cc2c[nH]cn2)C(=O)N[C@@H](Cc2c[nH]cn2)C(=O)N[C@@H](CC(C)C)C(=O)N[C@H](C)C(N)=O)NC(=O)[C@H](CC(C)C)NC(=O)[C@H](CCC(N)=O)NC(=O)[C@H](C)NC(=O)[C@H](Cc2c[nH]c3ccccc23)NC(=O)[C@H](Cc2ccc(O)cc2)NC(=O)[C@H](C)NC1=O)[C@@H](C)O [compound 43] (Ac-LTF[R8]AYWAQL[S5]HHL[dA]-NH2; staple 4-11): 2912.9

Let's switch to this molecule now.
Input line: Look up Molar Ellipticity TFE − Molar Ellipticity Benign: CC(=O)N[C@@H](CC(C)C)C(=O)N[C@H](C(=O)N[C@@H](Cc1ccccc1)C(=O)N[C@]1(C)CCCCCCC=CCCC[C@@](C)(C(=O)N[C@@H](CO)C(=O)N[C@@H](C)C(=O)N[C@@H](Cc2ccccc2)C(N)=O)NC(=O)[C@H](CC(C)C)NC(=O)[C@H](CCC(N)=O)NC(=O)[C@H](C)NC(=O)[C@H](Cc2c[nH]c3ccccc23)NC(=O)[C@H](Cc2ccc(O)cc2)NC(=O)[C@H](C)NC1=O)[C@@H](C)O [compound 7] (Ac-LTF[R8]AYWAQL[S5]SAF-NH2; staple 4-11)
Output line: −20045.4

* * *

System: Caspase 3
Assay: Caspase 3 detection assay in SJSA1 cells
Type: cell-based
Conditions: 30 μM, SJSA1, 48 h, Caspase 3 activation over DMSO-treated cells
Bridge positions count the residues as written; N and C are the ends. Square brackets hold non-standard residues; d marks the D form. Peptide text beside a SMILES is read from it. Trp(6-Cl) = N[C@@H](Cc1c[nH]c2cc(Cl)ccc12)C(=O)O; R8 = C=CCCCCCC[C@@](C)(N)C(=O)O; S5 = C=CCCC[C@](C)(N)C(=O)O; Aib = CC(C)(N)C(=O)O
# reported caspase 30 μM; entries follow
Answer as a number with no unit attached.

Worked examples follow.
* CC(=O)N[C@@H](CC(C)C)C(=O)N[C@H](C(=O)N[C@@H](Cc1ccccc1)C(=O)N[C@]1(C)CCCCCCC=CCCC[C@@](C)(C(=O)N[C@@H](CO)C(=O)N[C@@H](C)C(=O)NC(C)(C)C(N)=O)NC(=O)[C@H](CC(C)C)NC(=O)[C@H](CCC(N)=O)NC(=O)[C@H](C)NC(=O)[C@H](Cc2c[nH]c3ccccc23)NC(=O)[C@H](Cc2ccc(O)cc2)NC(=O)[C@H](C)NC1=O)[C@@H](C)O [compound 10] (Ac-LTF[R8]AYWAQL[S5]SA[Aib]-NH2; staple 4-11) | 32
* CC(=O)N[C@@H](CC(C)C)C(=O)N[C@H](C(=O)N[C@@H](Cc1ccccc1)C(=O)N[C@]1(C)CCCCCC/C=C/CCC[C@@](C)(C(=O)N[C@@H](CO)C(=O)N[C@@H](C)C(=O)N[C@@H](C)C(N)=O)NC(=O)[C@H](CC(C)C)NC(=O)[C@H](CCC(N)=O)NC(=O)[C@H](C)NC(=O)[C@H](Cc2c[nH]c3cc(Cl)ccc23)NC(=O)[C@H](Cc2ccc(O)cc2)NC(=O)[C@H](C)NC1=O)[C@@H](C)O [compound 99] (Ac-LTF[R8]AY[Trp(6-Cl)]AQL[S5]SAA-NH2; staple (E) 4-11) | 33

Input line: Look up caspase 30 μM: CC(=O)N[C@@H](CC(C)C)C(=O)N[C@H](C(=O)N[C@@H](Cc1ccccc1)C(=O)N[C@]1(C)CCCCCCC=CCCC[C@@](C)(C(=O)N[C@@H](C)C(=O)N[C@@H](C)C(=O)N[C@@H](C)C(=O)N[C@@H](C)C(=O)N[C@@H](C)C(=O)N[C@@H](C)C(=O)N[C@H](C)C(N)=O)NC(=O)[C@H](CC(C)C)NC(=O)[C@H](CCC(N)=O)NC(=O)[C@H](C)NC(=O)[C@H](Cc2c[nH]c3ccccc23)NC(=O)[C@H](Cc2ccc(O)cc2)NC(=O)[C@H](C)NC1=O)[C@@H](C)O (single isomer, unassigned) [compound 317]
Output line: 35

Input line: Look up caspase 30 μM: CC(=O)N[C@@H](CC(C)C)C(=O)N[C@H](C(=O)N[C@@H](Cc1ccccc1)C(=O)N[C@]1(C)CCCCCCC=CCCC[C@@](C)(C(=O)N[C@@H](C)C(=O)N[C@@H](C)C(=O)N[C@@H](C)C(=O)N[C@@H](C)C(=O)N[C@@H](C)C(=O)N[C@@H](C)C(=O)N[C@H](C)C(N)=O)NC(=O)[C@H](CC(C)C)NC(=O)[C@H](CCC(N)=O)NC(=O)[C@H](C)NC(=O)[C@H](Cc2c[nH]c3ccccc23)NC(=O)[C@H](Cc2ccc(O)cc2)NC(=O)[C@H](CCC(=O)O)NC1=O)[C@@H](C)O (single isomer, unassigned)
Output line: 29
